# Tested on: A/California/07/2009 virus (H1N1; CA07)
# Design: species or system BALB/c mice
# measurement-context: mouse, in vivo
Structures can show the parent of a compound that is named as a salt.
quantity-kind: Antibody titers in primary screening, Vaccine + compound
Please state the value as a number alone, without comment.

Solved entries:
molecule | test-value
OC[C@H]1O[C@@H]2O[C@H]3[C@H](O)[C@@H](O)[C@@H](O[C@H]4[C@H](O)[C@@H](O)[C@@H](O[C@H]5[C@H](O)[C@@H](O)[C@@H](O[C@H]6[C@H](O)[C@@H](O)[C@@H](O[C@H]7[C@H](O)[C@@H](O)[C@@H](O[C@H]8[C@H](O)[C@@H](O)[C@@H](O[C@H]1[C@H](O)[C@H]2O)O[C@@H]8CO)O[C@@H]7CO)O[C@@H]6CO)O[C@@H]5CO)O[C@@H]4CO)O[C@@H]3CO | 373.33
CC(/C=C/C=C(C)/C=C/C(=O)O)=C\C=C\C=C(C)\C=C\C=C(C)\C=C\C(=O)O (stereo in doubt) | 7680.00
Cc1c(C(=O)O)c(O)cc2c1C(=O)c1c(O)c([C@@H]3O[C@H](CO)[C@@H](O)[C@H](O)[C@H]3O)c(O)c(O)c1C2=O | 746.67

What the record says about CC(C)=CCC/C(C)=C/COC=O [Geranyl Formate] : Antibody titers in primary screening, Vaccine + compound is 2560.00

Looking up "CC1(C)[C@@H](O[C@H]2O[C@H](C(=O)O)[C@@H](O)[C@H](O)[C@H]2O[C@@H]2O[C@H](C(=O)O)[C@@H](O)[C@H](O)[C@H]2O)CC[C@]2(C)[C@H]3C(=O)C=C4[C@@H]5C[C@@](C)(C(=O)O)CC[C@]5(C)CC[C@@]4(C)[C@]3(C)CC[C@@H]12" , I found its Antibody titers in primary screening, Vaccine + compound recorded as 5973.33

Form: molecule = COC(=O)c1ccccc1N [Methyl Anthranilate] ; Antibody titers in primary screening, Vaccine + compound = 693.33

----------
Listed here: items and their measured Antibody titers in primary screening, Vaccine + compound.
# Tested on: A/California/07/2009 virus (H1N1; CA07)
# Parameters: species or system BALB/c mice
# measurement-context: mouse, in vivo
Lab note: jot the number down without any unit.

Examples with answers:
molecule | test-value
C[C@@H]1O[C@@H](O[C@H]2[C@H](Oc3cc(O)c4c(c3)O[C@H](c3ccc(O)cc3)CC4=O)O[C@H](CO)[C@@H](O)[C@@H]2O)[C@H](O)[C@H](O)[C@H]1O | 2133.33
O=C([O-])[C@H](O)[C@@H](O)[C@H](O)[C@H](O)CO.O=C([O-])[C@H](O)[C@@H](O)[C@H](O)[C@H](O)CO.[Fe+2] | 853.33
CCN(Cc1cccc(S(=O)(=O)[O-])c1)c1ccc(C(=C2C=CC(=[N+](CC)Cc3cccc(S(=O)(=O)[O-])c3)C=C2)c2ccccc2S(=O)(=O)[O-])cc1.[Na+].[Na+] | 1333.33
COc1ccc([C@@H]2CC(=O)c3c(O)cc(O[C@@H]4O[C@H](CO[C@@H]5O[C@@H](C)[C@H](O)[C@@H](O)[C@H]5O)[C@@H](O)[C@H](O)[C@H]4O)cc3O2)cc1O | 3840.00
COC(=O)[C@H](Cc1ccccc1)NC(=O)[C@H](CC(=O)O)NCCC(C)(C)C | 2560.00

Entry CC(CC=O)CCCC(C)(C)O (stereo not drawn) [Hydroxycitronellal] , Antibody titers in primary screening, Vaccine + compound reported as 2773.33
